Biological target: 5-HT-uptake (reuptake of serotonin in synaptosomes) (Rattus norvegicus, UniProt P31652)
Construct: In synaptosomes as described in WO 97/16451
Sequence (P31652 whole entry): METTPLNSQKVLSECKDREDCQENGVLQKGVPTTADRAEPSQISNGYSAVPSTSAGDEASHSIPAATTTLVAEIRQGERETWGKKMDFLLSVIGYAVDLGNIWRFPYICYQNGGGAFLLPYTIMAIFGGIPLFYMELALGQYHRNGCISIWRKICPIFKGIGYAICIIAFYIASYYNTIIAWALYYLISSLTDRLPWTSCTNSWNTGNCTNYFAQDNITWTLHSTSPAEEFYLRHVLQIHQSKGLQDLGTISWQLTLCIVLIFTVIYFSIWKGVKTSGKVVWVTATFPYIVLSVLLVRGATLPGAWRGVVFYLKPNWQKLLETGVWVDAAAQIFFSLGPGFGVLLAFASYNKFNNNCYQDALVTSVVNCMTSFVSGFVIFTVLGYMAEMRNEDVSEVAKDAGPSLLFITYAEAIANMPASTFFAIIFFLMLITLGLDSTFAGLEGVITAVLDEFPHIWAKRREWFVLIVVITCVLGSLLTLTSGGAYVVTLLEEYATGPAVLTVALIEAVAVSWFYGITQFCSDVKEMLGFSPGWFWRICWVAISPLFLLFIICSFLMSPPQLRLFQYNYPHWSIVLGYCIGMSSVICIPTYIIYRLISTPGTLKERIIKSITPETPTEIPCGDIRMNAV
Experiment: Inhibition of serotonin (5-HT) reuptake in synaptosomes
In plain terms, low IC50, meaning strictly below 0.5 nM, gives 1, and everything else gives -1.

{"molecule": "CN1C2CCC1[C@H](COc1cccc3ccccc13)[C@@H](c1cccs1)C2.O=C(O)/C=C/C(=O)O (stereo partly drawn)", "classification": 1}
{"molecule": "CN1C2CCC1[C@H](COc1cccc3ccccc13)[C@@H](c1ccco1)C2 (stereo partly drawn)", "classification": -1}
{"molecule": "CN1C2CCC1[C@H](COc1cccc(Cl)c1Cl)[C@@H](c1ccco1)C2.O=C(O)/C=C/C(=O)O (stereo partly drawn)", "classification": 1}
{"molecule": "c1csc(C2CC3CCC(N3)C2COc2cccc3ccccc23)c1 (stereo not drawn)", "classification": -1}
{"molecule": "Clc1cccc(OCC2C3CCC(CC2c2cccs2)N3)c1Cl (stereo not drawn)", "classification": -1}
{"molecule": "CN1C2CCC1[C@H](COc1cccc(Cl)c1Cl)[C@@H](c1cccs1)C2 (stereo partly drawn)", "classification": -1}
